B1: FAM50A (parent)
chain: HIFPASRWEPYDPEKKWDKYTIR

- Variants of: B1
- Experimental protocol: protein stability index of a GFP-peptide fusion (GPS, HEK-293T) (PSI 1-6); higher = more stable;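 further: lentivirally expressed fusions sorted by FACS into six bins by GFP to DsRed ratio, PSI derived from sequencing read proportions per bin multiplied by bin number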
- Condition description: c terminus: native
Collected protein stability index values appear next to each entry.
Please reply with the value in numeric form only.

>>> measurement("E14G")
2.5

Item: `K19C` | protein stability index: 1.81

Given item `K15R` , the value recorded as its protein stability index is 1.8

Per the records, this variant ( `F3C` ) has protein stability index equal to 2.54

The reported value for `K15I` in terms of protein stability index is 1.9

Record `Y11M` , field protein stability index: 2.65

Data point: `K19L` ; protein stability index = 2.04

Given item `D18T` , the value recorded as its protein stability index is 2.37

Measured protein stability index of `A5E` : 1.96

Kindly note the recorded protein stability index for `A5M` , which is 1.54

Recorded protein stability index (variant `R7K` ): 2.1

The reported measurements were obtained from the supplement of paper PMC10567573.
